system.under.test: human TRPV1 receptor (hTRPV1) (Homo sapiens)
Sequence (Q8NER1 whole entry): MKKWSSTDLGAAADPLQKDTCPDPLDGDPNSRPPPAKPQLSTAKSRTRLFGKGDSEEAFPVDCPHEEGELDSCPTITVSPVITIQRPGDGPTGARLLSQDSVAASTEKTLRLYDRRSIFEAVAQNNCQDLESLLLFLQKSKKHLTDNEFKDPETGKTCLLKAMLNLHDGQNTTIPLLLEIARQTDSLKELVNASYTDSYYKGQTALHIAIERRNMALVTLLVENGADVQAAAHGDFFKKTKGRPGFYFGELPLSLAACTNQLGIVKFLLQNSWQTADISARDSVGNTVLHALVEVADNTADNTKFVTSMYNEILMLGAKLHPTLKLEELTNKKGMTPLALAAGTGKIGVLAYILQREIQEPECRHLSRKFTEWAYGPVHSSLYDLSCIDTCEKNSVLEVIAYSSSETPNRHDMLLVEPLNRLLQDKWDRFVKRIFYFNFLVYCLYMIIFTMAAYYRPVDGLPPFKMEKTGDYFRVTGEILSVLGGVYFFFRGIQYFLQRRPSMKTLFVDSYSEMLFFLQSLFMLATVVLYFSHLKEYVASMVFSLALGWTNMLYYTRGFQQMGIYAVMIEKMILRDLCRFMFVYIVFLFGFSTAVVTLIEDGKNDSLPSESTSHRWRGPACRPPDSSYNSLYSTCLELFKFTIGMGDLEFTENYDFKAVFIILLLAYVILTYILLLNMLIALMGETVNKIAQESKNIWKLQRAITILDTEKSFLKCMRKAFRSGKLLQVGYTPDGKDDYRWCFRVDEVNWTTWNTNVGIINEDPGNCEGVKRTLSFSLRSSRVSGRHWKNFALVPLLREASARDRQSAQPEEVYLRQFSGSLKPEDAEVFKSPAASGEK
experimental.protocol: Capsaicin activation assay (Ca2+ influx, FLIPR)
protocol.conditions: hTRPV1 in 1321N1 cells, 0.05 μM capsaicin
pIC50: −log10 of the molar value.
Listed below: pIC50 values for each entry.

- compound.structure.string: "CCCC1(CCC)C[C@@H](NC(=O)Nc2cccc3c2cnn3C)c2cc(F)ccc2O1"
  pIC50: 7.51
- compound.structure.string: "CCC1(CC)C[C@@H](NC(=O)Nc2cccc3c2cnn3C)c2cccc(OC(F)(F)F)c2O1"
  pIC50: 7.80
- compound.structure.string: "O=C(Nc1cccc2[nH]ncc12)N[C@@H]1CC2(CCC2)Oc2ccc(F)cc21"
  pIC50: 7.12
- compound.structure.string: "CCC1(CC)C[C@@H](NC(=O)Nc2cccc3c2cnn3C)c2cc(F)ccc2O1"
  pIC50: 7.30
- compound.structure.string: "Cc1cc2c(NC(=O)N[C@@H]3C[C@](C)(CF)Oc4c(F)cccc43)cccc2cn1"
  pIC50: 6.70
- compound.structure.string: "Cc1cc2c(NC(=O)N[C@@H]3C[C@@](C)(CF)Oc4c(F)cccc43)cccc2cn1"
  pIC50: 6.52
- compound.structure.string: "Cc1cc2c(NC(=O)N[C@@H]3CC(C)(C)Oc4cc(C(F)(F)F)ccc43)cccc2cn1"
  pIC50: 7.72
- compound.structure.string: "O=C(Nc1cccc2c1C[C@H](O)CC2)N[C@@H]1CC2(CCC2)Oc2ccc(F)cc21"
  pIC50: 7.55
